molecular target: USP28 (His-tagged USP28-FL-mammalian) (Homo sapiens); construct: Expression of USP28 (1-1077)-TEV-6*His (pTT5 vector); made in house; host or cells: Expi293f cells (pTT5 vector); assay: Ubiquitin-Rhodamine 110 Assay for USP28 Activity, Example A-1(a); type: biochemical; settings: Ubiquitin-Rhodamine 110 assay, Example A-1(a); read-out: USP28 A-1(a) IC50 range
Sequence (Q96RU2 whole entry): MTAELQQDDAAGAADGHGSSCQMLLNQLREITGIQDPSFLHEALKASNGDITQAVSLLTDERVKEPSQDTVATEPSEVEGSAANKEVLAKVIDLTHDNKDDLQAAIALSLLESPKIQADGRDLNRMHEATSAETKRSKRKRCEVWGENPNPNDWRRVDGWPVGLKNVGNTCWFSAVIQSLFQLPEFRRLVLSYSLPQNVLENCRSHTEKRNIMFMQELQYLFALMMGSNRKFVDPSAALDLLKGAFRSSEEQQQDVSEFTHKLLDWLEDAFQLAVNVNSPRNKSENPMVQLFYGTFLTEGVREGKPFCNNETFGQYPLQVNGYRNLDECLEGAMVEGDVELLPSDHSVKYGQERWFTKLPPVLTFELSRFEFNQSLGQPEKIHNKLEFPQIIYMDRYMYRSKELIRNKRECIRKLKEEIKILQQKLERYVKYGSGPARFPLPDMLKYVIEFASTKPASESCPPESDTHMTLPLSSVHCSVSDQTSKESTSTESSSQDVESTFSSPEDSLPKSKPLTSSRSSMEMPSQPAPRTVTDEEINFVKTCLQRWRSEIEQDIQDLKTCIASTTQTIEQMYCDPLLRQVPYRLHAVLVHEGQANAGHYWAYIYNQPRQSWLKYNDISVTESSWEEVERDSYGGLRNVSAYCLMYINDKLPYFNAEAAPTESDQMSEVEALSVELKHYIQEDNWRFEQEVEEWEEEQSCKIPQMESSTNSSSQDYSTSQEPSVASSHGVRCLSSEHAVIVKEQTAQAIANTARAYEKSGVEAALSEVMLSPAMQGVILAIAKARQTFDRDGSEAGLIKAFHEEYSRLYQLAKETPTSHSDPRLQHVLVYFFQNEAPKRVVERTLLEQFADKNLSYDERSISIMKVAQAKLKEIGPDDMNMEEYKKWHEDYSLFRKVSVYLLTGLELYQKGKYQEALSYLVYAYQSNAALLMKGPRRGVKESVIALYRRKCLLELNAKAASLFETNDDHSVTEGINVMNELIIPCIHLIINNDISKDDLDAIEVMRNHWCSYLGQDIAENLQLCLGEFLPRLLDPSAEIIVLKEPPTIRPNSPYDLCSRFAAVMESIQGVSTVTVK
Provide the reported IC50 of each item.

Form field - read-out: IC50; system: USP28 (His-tagged USP28-FL-mammalian) (Homo sapiens); submitted item: Cc1cc(C(F)(F)F)c2c(N)c(C(=O)N[C@H]3COc4cc(N5CCNCC5)cc(F)c4C3)sc2n1
1 to 50 nM

Form field - read-out: IC50; system: USP28 (His-tagged USP28-FL-mammalian) (Homo sapiens); submitted item: Cc1ccc2c(N)c(C(=O)N[C@@H]3COc4c(cc(F)c(N5CCNCC5)c4F)C3)sc2n1 (single isomer, unassigned)
200 to 2000 nM

Form field - read-out: IC50; system: USP28 (His-tagged USP28-FL-mammalian) (Homo sapiens); submitted item: CCn1ccc2cc(C(=O)N[C@H]3CCc4nc(N5C[C@H](OC)[C@@H](N)C5)ccc4C3)cnc21
200 to 2000 nM

Form field - read-out: IC50; system: USP28 (His-tagged USP28-FL-mammalian) (Homo sapiens); submitted item: Cc1ccc2c(N)c(C(=O)N[C@H]3COc4nc(N5C[C@H](C(F)F)[C@@H](N)C5)ccc4C3)sc2n1
50 to 200 nM

Source of measurements: patent US11524966B1
